Where do these numbers come from? They come from patent US20240190880A1.

In this section, each of the compounds is paired with its reported DC50.
- Tested Target: ER (Homo sapiens, UniProt P03372)
- Construct: host or cells: T47D and MCF7 human breast cancer cells
- Test Description: ER degradation activity, in-cell western blot analysis in T47D cells
- Type: cell-based
- Study Conditions: 16 hours, Table A does not say which cell line (T47D or MCF7), read-out: Potency (DC50)

Compound	Tested Target	DC50
O=C1CCC(N2C(=O)c3cc4c(cc3C2=O)CN(C2CCN(CC3CCN(c5ccc([C@@H]6c7ccc(O)cc7CC[C@@H]6c6ccc(F)cc6)cc5)CC3)CC2)C4)C(=O)N1 (some centres unmarked) [E 273]	ER (Homo sapiens, UniProt P03372)	10 to 100 nM
C[C@@H]1Cc2c([nH]c3ccccc23)[C@@H](c2c(F)cc(CN3CCC4(CCC(C(=O)N5Cc6cc7c(cc6C5)C(=O)N(C5CCC(=O)NC5=O)C7=O)CC4)CC3)cc2F)N1CC(F)F (some centres unmarked) [E 382]	ER (Homo sapiens, UniProt P03372)	> 100 nM
C[C@@H]1Cc2c([nH]c3ccccc23)[C@@H](c2c(F)cc(N3CCC4(CCN(CC(=O)N5Cc6cc7c(cc6C5)C(=O)N(C5CCC(=O)NC5=O)C7=O)C4)CC3)cc2F)N1CC(F)F (some centres unmarked) [E 62]	ER (Homo sapiens, UniProt P03372)	< 10 nM
O=C1CCC(N2C(=O)c3cc4c(cc3C2=O)CN(CC2CCN(CC3(F)CN(c5ccc([C@@H]6c7ccc(O)cc7CC[C@@H]6c6ccccc6)cc5)C3)CC2)C4)C(=O)N1 (some centres unmarked) [E 286]	ER (Homo sapiens, UniProt P03372)	> 100 nM
C[C@@H]1Cc2c([nH]c3ccccc23)[C@@H](c2c(F)cc(N3CC4(CCN(CC(=O)N5Cc6cc7c(cc6C5)C(=O)N(C5CCC(=O)NC5=O)C7)C4)C3)cc2F)N1CC(F)F (some centres unmarked) [E 73]	ER (Homo sapiens, UniProt P03372)	< 10 nM

====

- Tested Target: ER (Homo sapiens, UniProt P03372)
- Construct: host or cells: T47D and MCF7 human breast cancer cells
- Test Description: ER degradation activity, in-cell western blot analysis in T47D cells
- Type: cell-based
- Study Conditions: 16 hours, Table A does not say which cell line (T47D or MCF7), read-out: Potency (DC50)
In this section, each of the molecules is paired with its reported DC50.
Test Readout: DC50

Molecule	Test Readout	Endpoint Value
C[C@@H]1Cc2c([nH]c3ccccc23)[C@@H](c2c(F)cc(C3CCN(C[C@H]4CC[C@@H](N5Cc6cc7c(cc6C5)C(=O)N(C5CCC(=O)NC5=O)C7=O)CC4)CC3)cc2F)N1CC(F)F (some centres unmarked)	DC50	> 100 nM
C[C@@H]1Cc2cc(O)ccc2[C@@H](c2c(F)cc(N3CC4(CCN(CC(=O)N5Cc6cc7c(cc6C5)C(=O)N(C5CCC(=O)NC5=O)C7)C4)C3)cc2F)N1CC(F)F (some centres unmarked)	DC50	< 10 nM
O=C1CCC(N2Cc3cc4c(cc3C2=O)CN(CC(=O)N2CCC3(CCN(c5ccc([C@@H]6c7ccc(O)cc7CC[C@@H]6c6ccccc6)cc5)CC3)C2)C4)C(=O)N1 (mixture of isomers)	DC50	10 to 100 nM
O=C1CCC(N2C(=O)c3cc4c(cc3C2=O)CN(c2ncc(CN3CC(Oc5ccc([C@@H]6c7ccc(O)cc7CC[C@@H]6c6ccccc6)cc5)C3)cn2)C4)C(=O)N1 (some centres unmarked)	DC50	> 100 nM
O=C1CCC(N2C(=O)c3cc4c(cc3C2=O)CN(Cc2ccc(N3CC(Nc5ccc([C@@H]6c7ccc(O)cc7CC[C@@H]6c6ccccc6)cc5)C3)nc2)C4)C(=O)N1 (some centres unmarked)	DC50	> 100 nM
C[C@H]1CC2(CCN(c3ccc([C@@H]4c5ccc(O)cc5CC[C@@H]4c4ccccc4)cc3)CC2)CN1CC(=O)N1Cc2cc3c(cc2C1)C(=O)N(C1CCC(=O)NC1=O)C3=O (mixture of isomers)	DC50	> 100 nM
O=C1CCC(N2C(=O)c3cc4c(cc3C2=O)CN(CC(=O)N2CCC3(CC2)CCN(c2ccc([C@@H]5c6ccc(O)cc6CC[C@@H]5c5ccccc5)nn2)CC3)C4)C(=O)N1 (mixture of isomers)	DC50	> 100 nM
O=C1CCC(N2C(=O)c3cc4c(cc3C2=O)CCN(CC(=O)N2CCC3(CC2)CCN(c2ccc([C@@H]5c6ccc(O)cc6CC[C@@H]5c5ccc(F)cc5)cc2)CC3)CC4)C(=O)N1 (some centres unmarked)	DC50	> 100 nM
CN(C1CCN(c2ccc([C@@H]3c4ccc(O)cc4CC[C@@H]3c3ccccc3)cc2)CC1)N1CCC(C(=O)N2Cc3cc4c(cc3C2)C(=O)N(C2CCC(=O)NC2=O)C4)CC1 (mixture of isomers)	DC50	10 to 100 nM
O=C1CCC(N2C(=O)c3cc4c(cc3C2=O)CN(C(=O)CN2CCC3(CC2)CCN(c2ccc(C(=C(CCCl)c5ccccc5)c5ccc(B(O)O)cc5)cc2)CC3)C4)C(=O)N1 (centres unmarked)	DC50	10 to 100 nM
O=C1CCC(N2C(=O)c3cc4c(cc3C2=O)CN(C(=O)[C@H]2CC[C@H](N3CC(Nc5ccc([C@H]6c7ccc(O)cc7CC[C@H]6c6ccccc6)cc5)C3)CC2)C4)C(=O)N1 (some centres unmarked) [E 390]	DC50	10 to 100 nM
C[C@@H]1Cc2cc(O)ccc2[C@@H](c2ccc(N3CCC4(CCN(C(=O)CN5Cc6cc7c(cc6C5)C(=O)N(C5CCC(=O)NC5=O)C7=O)CC4)CC3)cc2)N1CC(F)F (some centres unmarked)	DC50	10 to 100 nM
C[C@@H]1Cc2cc(O)ccc2[C@@H](c2c(F)cc(N3CCC4(CCN(C(=O)CN5Cc6cc7c(cc6C5)C(=O)N(C5CCC(=O)NC5=O)C7)C4)C3)cc2F)N1CC(C)(F)F (some centres unmarked)	DC50	> 100 nM
C[C@@H]1Cc2c([nH]c3ccccc23)[C@@H](c2c(F)cc(N3CCC(CN4CCCC(N5Cc6cc7c(cc6C5)C(=O)N(C5CCC(=O)NC5=O)C7=O)CC4)CC3)cc2F)N1CC(F)F (some centres unmarked)	DC50	< 10 nM
C[C@@H]1Cc2c([nH]c3ccccc23)[C@@H](c2c(F)cc(-c3ccc(C(=O)N4CCC(N5Cc6cc7c(cc6C5)C(=O)N(C5CCC(=O)NC5=O)C7=O)CC4)nc3)cc2F)N1CC(F)F (some centres unmarked)	DC50	10 to 100 nM
CN(C1CCC(N2Cc3cc4c(cc3C2)C(=O)N(C2CCC(=O)NC2=O)C4=O)CC1)C1CCN(c2ccc([C@@H]3c4ccc(O)cc4CC[C@@H]3c3ccccc3)cc2)CC1 (some centres unmarked)	DC50	> 100 nM
C[C@@H]1Cc2c([nH]c3ccccc23)[C@@H](c2c(F)cc(N3CCC(N4CC(CC(=O)N5Cc6cc7c(cc6C5)C(=O)N(C5CCC(=O)NC5=O)C7)C4)CC3)cc2F)N1CC(F)F (some centres unmarked)	DC50	10 to 100 nM
C[C@@H]1Cc2cc(O)ccc2[C@@H](c2c(F)cc(N3CCC(C(=O)N4CCC(N5Cc6cc7c(cc6C5)C(=O)N(C5CCC(=O)NC5=O)C7=O)CC4)CC3)cc2F)N1CC(F)F (some centres unmarked)	DC50	> 100 nM
C[C@@H]1Cc2c([nH]c3ccccc23)[C@@H](c2c(F)cc(N3CCC(N4CC(CN5Cc6cc7c(cc6C5)C(=O)N(C5CCC(=O)NC5=O)C7=O)C4)CC3)cc2F)N1CC(F)F (some centres unmarked)	DC50	10 to 100 nM
C[C@@H]1Cc2c([nH]c3ccccc23)[C@@H](c2c(F)cc(N3CCCC4(CN(C(=O)CN5Cc6cc7c(cc6C5)C(=O)N(C5CCC(=O)NC5=O)C7=O)C4)C3)cc2F)N1CC(F)F (some centres unmarked)	DC50	10 to 100 nM
